src = BigSolDB 2.1

settings: in n-octanol, 278.15 K
Property Name: solubility (mole fraction)
Answers are plain numbers.

Could you share which solubility (mole fraction) value was measured for `CN(C)CCC=C1c2ccccc2CCc2ccccc21.Cl` ? 0.00215

====

settings: in n-hexanol, 283.15 K
Property Name: solubility (mole fraction)
Answers are plain numbers.

Could you share which solubility (mole fraction) value was measured for `CN(C)CCC=C1c2ccccc2CCc2ccccc21.Cl` ? 0.0145

====

details: in NMP, 323.15 K
Property Name: solubility (mole fraction)
Numbers only.

Could you share which solubility (mole fraction) value was measured for `CN(C)CCC=C1c2ccccc2CCc2ccccc21.Cl` ? 0.0716

====

conditions: in 2-propoxyethanol, 278.15 K
Property Name: solubility (mole fraction)

Could you share which solubility (mole fraction) value was measured for `CN(C)CCC=C1c2ccccc2CCc2ccccc21.Cl` ? 0.06

====

settings: in ethanol, 303.15 K
Property Name: solubility (mole fraction)
Give bare numbers.

Could you share which solubility (mole fraction) value was measured for `CN(C)CCC=C1c2ccccc2CCc2ccccc21.Cl` ? 0.0938

====

details: in n-hexanol, 293.15 K
Property Name: solubility (mole fraction)
One number for each entry.

Could you share which solubility (mole fraction) value was measured for `CN(C)CCC=C1c2ccccc2CCc2ccccc21.Cl` ? 0.0217

====

settings: in 2-methoxyethanol, 278.15 K
Property Name: solubility (mole fraction)
Answers are plain numbers.

Could you share which solubility (mole fraction) value was measured for `CN(C)CCC=C1c2ccccc2CCc2ccccc21.Cl` ? 0.127

====

settings: in n-propanol, 293.15 K
Property Name: solubility (mole fraction)

Could you share which solubility (mole fraction) value was measured for `CN(C)CCC=C1c2ccccc2CCc2ccccc21.Cl` ? 0.0453

====

details: in methanol, 283.15 K
Property Name: solubility (mole fraction)
Give bare numbers.

Could you share which solubility (mole fraction) value was measured for `CN(C)CCC=C1c2ccccc2CCc2ccccc21.Cl` ? 0.152

====

conditions: in n-hexanol, 298.15 K
Property Name: solubility (mole fraction)

Could you share which solubility (mole fraction) value was measured for `CN(C)CCC=C1c2ccccc2CCc2ccccc21.Cl` ? 0.027

====

settings: in NMP, 293.15 K
Property Name: solubility (mole fraction)
Numbers only.

Could you share which solubility (mole fraction) value was measured for `CN(C)CCC=C1c2ccccc2CCc2ccccc21.Cl` ? 0.0412

====

settings: in n-heptanol, 283.15 K
Property Name: solubility (mole fraction)

Could you share which solubility (mole fraction) value was measured for `CN(C)CCC=C1c2ccccc2CCc2ccccc21.Cl` ? 0.0124

====

conditions: in 2-ethoxyethanol, 283.15 K
Property Name: solubility (mole fraction)
Give bare numbers.

Could you share which solubility (mole fraction) value was measured for `CN(C)CCC=C1c2ccccc2CCc2ccccc21.Cl` ? 0.0895

====

conditions: in 2-ethoxyethanol, 318.15 K
Property Name: solubility (mole fraction)
Answers are plain numbers.

Could you share which solubility (mole fraction) value was measured for `CN(C)CCC=C1c2ccccc2CCc2ccccc21.Cl` ? 0.141

====

settings: in DMF, 293.15 K
Property Name: solubility (mole fraction)
Answers are plain numbers.

Could you share which solubility (mole fraction) value was measured for `CN(C)CCC=C1c2ccccc2CCc2ccccc21.Cl` ? 0.0388

====

settings: in n-heptanol, 308.15 K
Property Name: solubility (mole fraction)
Numbers only.

Could you share which solubility (mole fraction) value was measured for `CN(C)CCC=C1c2ccccc2CCc2ccccc21.Cl` ? 0.0333
